assayed-system: EGFR (Homo sapiens)
Construct: host or cells: A431
assay-text: EGFR in-cell Western (ICW) screening protocol (EGFR inhibition assay)
Format: cell-based
Parameters: unit not given here
setup-conditions: ICW assay, run 2
Counter-ions that a name gives are not always drawn.
quantity: ICW 2

These recorded examples may help you get a feel for the data.
molecule="COc1cccc2c(C)nc(Nc3nc(C)cc(=O)[nH]3)nc12 [11772 + TFA]" assayed_system="EGFR (Homo sapiens)" quantity="ICW 2" measured_value=73.50
molecule=Cc1nc(Nc2nc(C(C)C)cc(=O)[nH]2)nc2c(C)cccc12 assayed_system="EGFR (Homo sapiens)" quantity="ICW 2" measured_value=37.17
molecule="CCOc1cccc2c(C)nc(Nc3nc(C)c(C)c(=O)[nH]3)nc12 [12735 + TFA]" assayed_system="EGFR (Homo sapiens)" quantity="ICW 2" measured_value=59.98
molecule="CCc1c(C)nc(Nc2nc(C)c3ccc(C)cc3n2)[nH]c1=O [12683 + TFA]" assayed_system="EGFR (Homo sapiens)" quantity="ICW 2" measured_value=27.38
molecule="COCc1cc(=O)nc(Nc2nc(C)c3cc(C)cc(C)c3n2)[nH]1 [12644 + TFA]" assayed_system="EGFR (Homo sapiens)" quantity="ICW 2" measured_value=33.67

A: CCCc1c(C)nc(Nc2nc(C)c3cc(C)cc(C)c3n2)[nH]c1=O [compound 12736]
B: Cc1cc(C)c2nc(Nc3nc(CSc4ccc(Cl)cc4)cc(=O)[nH]3)nc(C)c2c1 [11726 + TFA]
C: COc1ccc2nc(Nc3nc(C)c(Cc4cccc(Cl)c4)c(=O)[nH]3)nc(C)c2c1 [11742 + TFA]
Challenge: Arrange these molecules by their ICW 2, starting with the largest number. Answer format: the labels, ordered as requested.
Response given: A, C, B

---

assayed-system: EGFR (Homo sapiens, UniProt P00533)
Construct: host or cells: A431
Sequence (P00533 25-1210): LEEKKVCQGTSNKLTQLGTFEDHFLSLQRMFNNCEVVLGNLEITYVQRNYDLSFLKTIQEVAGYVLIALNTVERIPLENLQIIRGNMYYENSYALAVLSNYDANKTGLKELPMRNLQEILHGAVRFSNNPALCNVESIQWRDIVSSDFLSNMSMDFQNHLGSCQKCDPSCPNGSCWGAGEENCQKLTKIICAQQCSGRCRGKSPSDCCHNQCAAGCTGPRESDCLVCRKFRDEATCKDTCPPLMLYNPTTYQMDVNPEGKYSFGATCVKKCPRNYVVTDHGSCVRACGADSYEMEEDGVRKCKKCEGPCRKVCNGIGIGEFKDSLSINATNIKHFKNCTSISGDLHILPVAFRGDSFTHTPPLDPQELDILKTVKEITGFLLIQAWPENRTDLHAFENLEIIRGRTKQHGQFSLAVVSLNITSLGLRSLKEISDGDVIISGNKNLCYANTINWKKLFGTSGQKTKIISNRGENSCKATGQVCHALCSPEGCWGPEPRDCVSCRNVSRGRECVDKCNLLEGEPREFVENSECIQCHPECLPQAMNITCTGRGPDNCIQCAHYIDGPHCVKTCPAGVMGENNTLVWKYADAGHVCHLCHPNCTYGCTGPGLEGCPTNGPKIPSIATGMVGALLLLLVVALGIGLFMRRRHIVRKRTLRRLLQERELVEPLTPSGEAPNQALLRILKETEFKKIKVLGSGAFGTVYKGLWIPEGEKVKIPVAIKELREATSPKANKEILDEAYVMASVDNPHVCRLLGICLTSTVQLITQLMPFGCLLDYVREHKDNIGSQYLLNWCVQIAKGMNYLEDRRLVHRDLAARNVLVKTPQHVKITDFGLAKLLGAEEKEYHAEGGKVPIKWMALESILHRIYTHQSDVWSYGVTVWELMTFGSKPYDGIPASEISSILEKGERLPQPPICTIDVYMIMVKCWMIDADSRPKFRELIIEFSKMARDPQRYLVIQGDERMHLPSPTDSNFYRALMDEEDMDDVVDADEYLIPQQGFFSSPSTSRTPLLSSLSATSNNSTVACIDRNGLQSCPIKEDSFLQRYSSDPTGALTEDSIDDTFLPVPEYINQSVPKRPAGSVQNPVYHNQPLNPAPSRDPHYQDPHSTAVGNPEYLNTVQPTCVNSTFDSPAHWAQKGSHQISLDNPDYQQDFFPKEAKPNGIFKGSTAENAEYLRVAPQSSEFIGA
assay-text: EGFR in-cell Western (ICW) screening protocol (EGFR inhibition assay)
Assay type: cell-based
Set-up: unit not given here
setup-conditions: ICW assay, average of runs 1 and 2
Counter-ions that a name gives are not always drawn.
quantity: ICW Avg

molecule="CCCc1c(C)nc(Nc2nc(C)c3cc(C)cc(C)c3n2)[nH]c1=O [12612 + TFA]" assayed_system="EGFR (Homo sapiens, UniProt P00533)" measured_value=57.36
molecule="CCOC(=O)c1c(N)nc(Nc2nc(C)c3cc(C)ccc3n2)nc1-c1ccccc1 [compound 11812]" assayed_system="EGFR (Homo sapiens, UniProt P00533)" measured_value=56.84
molecule=C=CCc1c(C)nc(Nc2nc(C)c3cc(CC)ccc3n2)[nH]c1=O assayed_system="EGFR (Homo sapiens, UniProt P00533)" measured_value=34.03
molecule="CCOc1cccc2c(C)nc(Nc3nc(C)c(Cc4ccc(C)cc4)c(=O)[nH]3)nc12 [11753 + TFA]" assayed_system="EGFR (Homo sapiens, UniProt P00533)" measured_value=44.86

---

assayed-system: EGFR (Homo sapiens, UniProt P00533)
Construct: host or cells: A431
assay-text: EGFR in-cell Western (ICW) screening protocol (EGFR inhibition assay);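 as to ICW Screen (ICW Inhibition): compound at 125 µM in assay in A431 cells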
Format: cell-based
quantity: ICW Screen (ICW Inhibition)

These recorded examples may help you get a feel for the data.
compound="CN(Cc1ccccc1)S(=O)(=O)c1ccc(NC(=S)NC(=O)/C=C/c2ccccc2)cc1 [AD4-12126]" assayed_system="EGFR (Homo sapiens, UniProt P00533)" measured_value=37.795
compound="COc1ccc(CC(=O)NC(=S)Nc2ccc(S(=O)(=O)N3CCOCC3)cc2)cc1 [AD4-11406]" assayed_system="EGFR (Homo sapiens, UniProt P00533)" measured_value=26.851
compound="CCN(c1ccccc1)S(=O)(=O)c1ccc(NC(=S)NC(=O)Cc2ccccc2)cc1 [AD4-11412]" assayed_system="EGFR (Homo sapiens, UniProt P00533)" measured_value=31.958
compound="COc1cc(NS(=O)(=O)c2ccc(NC(=S)NC(=O)CCc3ccc(F)cc3)cc2)ncn1 [AD4-11384]" assayed_system="EGFR (Homo sapiens, UniProt P00533)" measured_value=28.127
compound="C=CCN(CC=C)S(=O)(=O)c1ccc(NC(=S)NC(=O)/C=C/c2ccc(OC)cc2)cc1 [AD4-12016]" assayed_system="EGFR (Homo sapiens, UniProt P00533)" measured_value=34.399

1: COc1cc(OC)nc(NS(=O)(=O)c2ccc(NC(=S)NC(=O)C3CCCC3)cc2)n1 [AD4-11536]
2: Cc1ccc(NS(=O)(=O)c2ccc(NC(=S)NC(=O)C3CC3)cc2)c(C)c1 [AD4-12097]
Challenge: Hi team, can someone confirm which has the larger ICW Screen (ICW Inhibition): 1 or 2 ? Thanks. Which one? Tell me its label.
Response given: 2
